- TARGET_DESC: rabbit antibody C7 scFv H-S52A (rabbit)
- Sequence (heavy, as listed by the source, chain 1 of 2): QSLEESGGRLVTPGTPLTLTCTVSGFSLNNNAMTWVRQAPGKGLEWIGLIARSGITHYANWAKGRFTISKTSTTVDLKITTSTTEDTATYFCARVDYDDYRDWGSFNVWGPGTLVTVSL
- Sequence (light, as listed by the source, chain 2 of 2): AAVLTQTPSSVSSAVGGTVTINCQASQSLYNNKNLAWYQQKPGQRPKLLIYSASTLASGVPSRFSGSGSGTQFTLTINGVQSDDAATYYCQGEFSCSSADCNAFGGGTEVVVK
- METHOD_DESCRIPTION: ITC; iTC200; 5 μM scFv in the cell, 50 μM peptide in the syringe; samples dialyzed against PBS; triplicate
Where no end group is shown, it is not given here. [ ]: non-standard residue; d: D form. pS = N[C@@H](COP(=O)(O)O)C(=O)O
MEASUREMENT_LABEL: pKd
pKd (log units): -log10 of the concentration in mol/L.

Short answer for RPHFPQF[pS]YSAS [phosphorylated Akt peptide] : pKd was 6.18
